- method-description: soluble fraction after stress (log2 fold change); higher = more stays soluble; pooled small domains, quantitative proteomics;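 further: 20 min heating vs room temperature control held 20 min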
- details: stress: 75 degC
Could you label it Met if measured soluble fraction (log2) is -0.8 or higher, and Not met otherwise?

Is it the case that `HMATTPEETILEYINKNNRISKQEIADLMGITRDGVSYHIKKLRKNGLLEWIGSPSNGHWEIIE` has soluble fraction (log2) reaching or exceeding -0.8?
Met

Next:
# bool: soluble fraction (log2) of `HMETMSYAEFNAIRIGKAKLMLADPSLKIWEISEAVGYTDTAHFARTFKKLEGMSANEYRNSL` >= -0.8
Not met

Dear colleague, could you confirm whether `HMNPTSLTFRSNVKDGKVYVDGIFKGSSDLDFDLPKGRHSIRIEKDGYVPFAKTINLIKALVIDFNMEKA` has soluble fraction (log2) at or above -0.8?
Not met

====

- method-description: soluble fraction after stress (log2 fold change); higher = more stays soluble; pooled small domains, quantitative proteomics
- details: stress: 75 degC
recorded-endpoint: soluble fraction (log2)
Give the value as a plain number.

These recorded examples may help you get a feel for the data.
Kindly note the recorded soluble fraction (log2) for `HMGGHLAYGFSRRFGLLIDEQQGEPVIIARPDYSPVHYAEARRIVGQPAALRVVDEQAFNQLLQSQQESGA` , which is -0.512

soluble fraction (log2) reported for this sequence `HMDSVEYRVITGDDVNFRKGPSTDYASLGKLNKGYKVEYISETNSWSKVKYNGQTGYVYSKYVAQT` : -0.155

Further cases:
Query `HMTEEPISDGIKKLVEEWENIEGNLIMIFHGIQKHYGYVPRNVAKYVSEAIDVPLTRIYEILTFYNYFTM` yields soluble fraction (log2) of 0.261

====

- method-description: soluble fraction after stress (log2 fold change); higher = more stays soluble; pooled small domains, quantitative proteomics
- details: stress: 75 degC
recorded-endpoint: soluble fraction (log2)
Format: numeric value only, no unit, no commentary.

# example entries with known answers
Sample `HMENYQIETFVKFIEESTGEDGVAFEDLFQNFTSRPAVITMFLALLEALRRNSIRIFQKEEFSQILIYPK` ; soluble fraction (log2) observed: -0.0302

Just so you know, measured soluble fraction (log2) for `HMENVLFVNVLSMTVRELAEMMKIPVNKIIQDSFSKGIMMNPNQRLEYDNFAELAKKYGITVKI` came out at -1.24

Record `HMAAVPYQVKITTEDLRIRTGPGTNHDFTGQYTGKGVFTIVEESEGSGAPIWGRLKSGAGWIGIDPSWSVR` . Reported soluble fraction (log2): -0.546

Further cases:
Value of soluble fraction (log2) reported for the sequence `HMGGAYATVKLSSSSSQLNVRASASTASRVVARLSHGFRVEVLGVSGDWVKIRALGVEGYVARAYLALEGE` is -3.07

response.value for `HMPETYVVFSKDGYANLRRGTTINSEILDVLDNGEYVTKLDEVGEWYRVEYADFDGGYIHKSQLKNI` (field: soluble fraction (log2)) = -0.288

====

Recorded soluble fraction (log2) for the following sequences
- method-description: soluble fraction after stress (log2 fold change); higher = more stays soluble; pooled small domains, quantitative proteomics
- details: stress: 75 degC
Answer with the value's number alone.

Recorded soluble fraction (log2) (sequence `HMGMYFTEMRKNEGLIALNGVAESNKRVSDLMDNLKDSSSFDAADIKAVKSGSGDASSLMDFELLVT` ): -0.0643

Recorded soluble fraction (log2) (sequence `HMDNPPDRAEIEQMLKDAGLTPEADAMAALSDLARTLDPGDFRQTLEKITLYKLGDSTPIGLDDIAAGAP` ): 0.0465

`HMTFKDIMENYTISRIENTINSAVVFLDEINAYITIDKTQLPSNLRYDTDSKIMASQIPDDAKIKYFMIYW` has a reported soluble fraction (log2) of -2.12

Please fill in: soluble fraction (log2) reported for `HMDKEKLQEKLLQIFEAEPQKKFQVQDLVKVLDMEGAGQFKFVVQALADLEHNKQIKLSEDDTFSLIVKE` = -0.173

====

- method-description: soluble fraction after stress (log2 fold change); higher = more stays soluble; pooled small domains, quantitative proteomics
- details: stress: 75 degC
recorded-endpoint: soluble fraction (log2)
Answer with a bare number; do not write a unit.

# soluble fraction (log2) (sequence: `HMPYSKIALQISHLLKSHGVPLSNKQIYEKLINDFQLSINYSNLTNNILPRMNSDSSINVEKVTRGYWQY` ) is -0.931

Data point: `HMAAENAVGARVKALREAMDLSLRDLSERSGVSPTMLSQVERGSTSPTLAVAEKIAAGLDLSLSQLLRL` ; soluble fraction (log2) = 0.137

Lab note: `HMAAPPPLSDYRNMQEAEHIRNILLQHHGNVRRAAAALELSRPYLYQKMKQLGINIAELRELSLSHSS` gave soluble fraction (log2) of -1.03

The value of soluble fraction (log2) measured for the sequence `HMDAEKHIVTPEAGLRLDRALTDALPNLSRSRVKQLINEGLVTTENKTITAPSYRVKYGDSFEISIPPPT` turned out to be -0.16

Form field soluble fraction (log2), entry `HMKKYLTETEAAAYLNMPVEEIKAAITKGEIEQYVKTSSGYTISVEELDKFFGQKAYDTMTSNNS` : 0.0786

Input `HMQLTPAQHAILAYAIEHTGGKIEWFPDNIKGGARTKVLEGLFNKALITRDSTDWFVAAEGYDALGR` . Output soluble fraction (log2): -0.949

GET /value?item= `HMEYPNEIARIFNQIPELNVSAVARTLGINKSLLSSYIYGMKKPSPERTEEIKSAIRKIGQNMLAV` &field=soluble fraction (log2) returns -0.927

***
Recorded result, `HMSMHVHTPNPDFKPSNTNALQEGQLVEHPKFGFGKVQKIETEGLNKKASIQFEHFGEKTLLLSFAKLRII` , soluble fraction (log2): -1.47

====

- method-description: soluble fraction after stress (log2 fold change); higher = more stays soluble; pooled small domains, quantitative proteomics
- details: stress: 75 degC
Please use y whenever soluble fraction (log2) is not below -0.3, and n whenever it is.

These solved cases illustrate the format of a correct answer.
Reported soluble fraction (log2) at or above -0.3? `HMRKSAVSSTLTSIEGIGATRAKALLKHFKTVAAVSEADLKELEDAPGMTRPSALRVYEYFHGK`
n

Does the reported soluble fraction (log2) for `HMHAPRIEVVQIDPEKIGALIGPGGKNIRRITEVTGANLDIDEDNSGKIRVYASDSEAMNRALQEIDLVT` fall at or above the -0.3 mark?
y

Answer whether soluble fraction (log2) of `HMGLIAPMPGQIRSVAVSVGDVVKKGQTLLTMEAMKMEIRIQALKDGRVTALHAAQGQTVEGEQILIEVE` is greater than or equal to -0.3.
n

Test whether the sequence `HMPLNAHIVGRGKRDRRGKRGAPYSIVLELGRDENGKRIQKWYSGYPTKAAAEEDKIRMLRELQTGEYVPQ` records soluble fraction (log2) of -0.3 or higher.
n

Say whether `HMGKKQLVVDLQSIITDVPAALKSYGLEIGQDGKSLIYTYDTKGERTGITTLLNDLQKAGLQMTDMKTQQ` shows soluble fraction (log2) of -0.3 or more.
y

Others:
hey, is soluble fraction (log2) for this one >= -0.3? `HMDYYSILGVDRNATGEDIKKAFKKKAMKYHPDRNPDNKESERKFKEAKEAYDTLSNPQKKSMYDQFGT`
y

Is soluble fraction (log2) at least -0.3? Consider `HMVMETLAERINTALQTKGLSVNALARRVGVSYPAMRKITKGETLNPKFLFEIAEALGVSVEWLKTGEGSP`
n

Decide: is the reported value of soluble fraction (log2) for `HMIADPAKPDWTTILAPVTTGTTVTHKTFGQGTVTKLDKTKKYLTVSFAAGQKNFVFPNAFIDGFLK` equal to or greater than -0.3?
y

====

Readings of soluble fraction (log2) for the listed sequences
- method-description: soluble fraction after stress (log2 fold change); higher = more stays soluble; pooled small domains, quantitative proteomics
- details: stress: 75 degC
// no unit, no text: just the number

soluble fraction (log2) reported for this sequence `HMDITGIGIKKRIKAIIDSEDKKNPLSDTQIVEILKNEGLEISRRTVAKYRSDLQIPSSSKRKK` : 0.143

soluble fraction (log2) reported for this sequence `HMEVPMELPRQLRANRERLGLSQEDVAHAIYVSRQTMSSWERGKTYPDVQSLMLLSHLFGISIDELVKGDV` : -1.57

Per the record, `HMLMTGSLQTKHGKYYVVVRIPDGLGNTKAKWINTGIPTDGNNKRKAQQRRIEILTELEENKD` has soluble fraction (log2) of -2.47

The sequence `HMGRFAETVEHIVAAQLARRQGIPTMEQFASFFNVSRATFQRRLGEEGETLEQIKQRVRLRLALELLHP` showed soluble fraction (log2) equal to -3.1

The reported soluble fraction (log2) of the sequence `HMIDFDEIEILSSSKIEKIENSEYLKSSIFEKDSNQYIYRLSFENRDQLKNFKKEIEDIDQIKKIDVTY` was 0.0545

Lab book: soluble fraction (log2) of `HMLQADALADPVGWALRTLGFDLEAGTPERSAIQRSFRQSLIEAHPDHGGADDEAAQRIADITEARRILLA` noted as -0.403

Looking up `HMQKIEKVDYGTFLKMIENGEIDQVNLTEKKISFTTDKDAETVYETGRVEDPNIVDRLYQADVEFTQEI` , I found its soluble fraction (log2) recorded as 0.598

Consider `HMDEYTAVDSRLDLELAMKRLKPEEAEVLRLVFDYGLPQRAIAERLGVSQMSVSRMQRRAIGKLKRWLSDN` . Its measured soluble fraction (log2) is -1.43
